- system-name: FL-SMARCA2 (full-length human SMARCA2 isoform 1) (Homo sapiens, UniProt P51531)
- Construct: FLAG tag (YKDDDDK) (C); made in house; host or cells: Sf21 insect cells (baculovirus, pFastBacI)
- Sequence (P51531 with tags, fused parts or gaps): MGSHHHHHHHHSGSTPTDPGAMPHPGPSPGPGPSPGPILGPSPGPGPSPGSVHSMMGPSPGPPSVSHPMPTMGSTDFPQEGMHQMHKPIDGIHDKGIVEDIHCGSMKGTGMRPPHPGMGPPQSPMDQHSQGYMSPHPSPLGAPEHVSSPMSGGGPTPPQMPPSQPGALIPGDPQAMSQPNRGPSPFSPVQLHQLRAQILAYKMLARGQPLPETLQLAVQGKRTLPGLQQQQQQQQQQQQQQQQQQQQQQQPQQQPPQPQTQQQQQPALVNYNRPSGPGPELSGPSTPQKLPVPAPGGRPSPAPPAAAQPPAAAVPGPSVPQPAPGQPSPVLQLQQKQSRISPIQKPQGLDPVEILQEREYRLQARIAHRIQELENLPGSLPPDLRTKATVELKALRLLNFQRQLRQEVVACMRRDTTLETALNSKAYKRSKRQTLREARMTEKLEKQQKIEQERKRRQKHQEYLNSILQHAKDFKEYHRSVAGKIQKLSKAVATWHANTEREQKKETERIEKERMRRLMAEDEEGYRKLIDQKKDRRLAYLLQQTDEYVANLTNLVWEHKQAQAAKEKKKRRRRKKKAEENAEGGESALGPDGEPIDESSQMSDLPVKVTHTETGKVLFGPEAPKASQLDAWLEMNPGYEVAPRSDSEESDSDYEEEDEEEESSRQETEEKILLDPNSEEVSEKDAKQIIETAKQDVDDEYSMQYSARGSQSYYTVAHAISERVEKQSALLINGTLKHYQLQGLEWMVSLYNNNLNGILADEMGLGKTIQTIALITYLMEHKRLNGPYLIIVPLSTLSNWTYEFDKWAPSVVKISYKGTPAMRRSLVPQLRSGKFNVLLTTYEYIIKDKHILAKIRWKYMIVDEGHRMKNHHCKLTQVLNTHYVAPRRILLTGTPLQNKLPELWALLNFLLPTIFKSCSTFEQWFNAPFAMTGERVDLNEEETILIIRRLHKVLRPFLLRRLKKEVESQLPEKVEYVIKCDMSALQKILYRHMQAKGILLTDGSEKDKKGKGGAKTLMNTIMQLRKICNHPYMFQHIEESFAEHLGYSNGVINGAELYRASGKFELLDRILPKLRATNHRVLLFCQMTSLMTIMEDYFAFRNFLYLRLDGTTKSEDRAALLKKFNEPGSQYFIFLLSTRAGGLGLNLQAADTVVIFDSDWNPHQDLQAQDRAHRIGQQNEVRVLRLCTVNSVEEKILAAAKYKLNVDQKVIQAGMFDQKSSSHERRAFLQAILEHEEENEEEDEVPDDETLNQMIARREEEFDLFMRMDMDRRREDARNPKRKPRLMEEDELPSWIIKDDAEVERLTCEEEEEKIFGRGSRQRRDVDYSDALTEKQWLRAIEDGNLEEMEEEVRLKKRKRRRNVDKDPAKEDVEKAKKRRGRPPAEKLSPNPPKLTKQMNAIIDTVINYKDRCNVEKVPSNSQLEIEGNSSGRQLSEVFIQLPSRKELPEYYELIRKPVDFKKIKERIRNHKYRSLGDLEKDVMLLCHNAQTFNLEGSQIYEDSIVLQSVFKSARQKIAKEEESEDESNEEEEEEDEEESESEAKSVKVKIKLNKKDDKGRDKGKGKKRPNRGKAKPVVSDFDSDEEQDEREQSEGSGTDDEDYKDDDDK
- protocol-text: SMARCA2 ATPase activity assay (ADP-Glo, chicken mononucleosome substrate)
- Format: biochemical
- measurement-context: Table 3a.1; SMARCA2 5 nM, ATP 250 uM, mononucleosome 10 nM
- Description: Molecular Biology: Full-length human SMARCA2 isoform 1 (P51531) transcript clone was amplified from a cDNA library incorporating an N-terminal HIS tag ([…]) fused directly to Ser2 of SMARCA2 and a C-FLAG tag (YKDDDDK) fused directly to Glu1590 of SMARCA2. […] Expressed full-length SMARCA2 was purified from cell paste by FLAG affinity chromatography followed by anion exchange chromatography. […] The purity of the protein was measured as 74% using micro-capillary based gel electrophoresis.
quantity: IC50

The recorded IC50 for entry CCn1cc(NC(=O)c2cn3cc(Cl)c(F)cc3n2)ccc1=O [Compound 45a] equals > 50 µM

Lab note: measured IC50 of CCn1cc(NC(=O)c2ccc3cn[nH]c3n2)ccc1=O [Compound 38a] was > 50 µM

Consider CCn1cc(NC(=O)c2cnc(Cl)c(Cl)c2)ccc1=O [Compound 16a] . Its measured IC50 is 26.8 µM

// field: IC50; key: CCn1cc(NC(=O)c2cn3ccccc3n2)ccc1=O [Compound 20a] ; value = > 50 µM

Sample CCn1cc(NC(=O)c2cnc3ccccn23)ccc1=O [Compound 19a] ; IC50 observed: > 50 µM

The molecule listed as CCn1cc(NC(=O)c2cn3cccnc3n2)ccc1=O [Compound 21a] has a reported IC50 of > 50 µM

// field: IC50; key: C[C@H]1OCC(=O)N(Cc2ccccc2)[C@@H]1C(=O)Nc1ccc(=O)n(C)c1 ; value = > 50 µM

Data point: CCn1cc(NC(=O)c2cccnc2)ccc1=O [Compound 14a] ; IC50 = > 50 µM

So, CCn1cc(NC(=O)c2nc3cc(F)c(Cl)cc3s2)ccc1=O [Compound 46a] ? Its IC50 was 42.7 µM

The reported value for CCn1cc(N(C)C(=O)c2cc(Cl)c(Cl)n2C)ccc1=O [Compound 71a] in terms of IC50 is 2.72 µM

---

Give measured pIC50 for each item. Keep answers brief.
- system-name: FL-SMARCA4 (Homo sapiens, UniProt P51532)
- Sequence (P51532 whole entry): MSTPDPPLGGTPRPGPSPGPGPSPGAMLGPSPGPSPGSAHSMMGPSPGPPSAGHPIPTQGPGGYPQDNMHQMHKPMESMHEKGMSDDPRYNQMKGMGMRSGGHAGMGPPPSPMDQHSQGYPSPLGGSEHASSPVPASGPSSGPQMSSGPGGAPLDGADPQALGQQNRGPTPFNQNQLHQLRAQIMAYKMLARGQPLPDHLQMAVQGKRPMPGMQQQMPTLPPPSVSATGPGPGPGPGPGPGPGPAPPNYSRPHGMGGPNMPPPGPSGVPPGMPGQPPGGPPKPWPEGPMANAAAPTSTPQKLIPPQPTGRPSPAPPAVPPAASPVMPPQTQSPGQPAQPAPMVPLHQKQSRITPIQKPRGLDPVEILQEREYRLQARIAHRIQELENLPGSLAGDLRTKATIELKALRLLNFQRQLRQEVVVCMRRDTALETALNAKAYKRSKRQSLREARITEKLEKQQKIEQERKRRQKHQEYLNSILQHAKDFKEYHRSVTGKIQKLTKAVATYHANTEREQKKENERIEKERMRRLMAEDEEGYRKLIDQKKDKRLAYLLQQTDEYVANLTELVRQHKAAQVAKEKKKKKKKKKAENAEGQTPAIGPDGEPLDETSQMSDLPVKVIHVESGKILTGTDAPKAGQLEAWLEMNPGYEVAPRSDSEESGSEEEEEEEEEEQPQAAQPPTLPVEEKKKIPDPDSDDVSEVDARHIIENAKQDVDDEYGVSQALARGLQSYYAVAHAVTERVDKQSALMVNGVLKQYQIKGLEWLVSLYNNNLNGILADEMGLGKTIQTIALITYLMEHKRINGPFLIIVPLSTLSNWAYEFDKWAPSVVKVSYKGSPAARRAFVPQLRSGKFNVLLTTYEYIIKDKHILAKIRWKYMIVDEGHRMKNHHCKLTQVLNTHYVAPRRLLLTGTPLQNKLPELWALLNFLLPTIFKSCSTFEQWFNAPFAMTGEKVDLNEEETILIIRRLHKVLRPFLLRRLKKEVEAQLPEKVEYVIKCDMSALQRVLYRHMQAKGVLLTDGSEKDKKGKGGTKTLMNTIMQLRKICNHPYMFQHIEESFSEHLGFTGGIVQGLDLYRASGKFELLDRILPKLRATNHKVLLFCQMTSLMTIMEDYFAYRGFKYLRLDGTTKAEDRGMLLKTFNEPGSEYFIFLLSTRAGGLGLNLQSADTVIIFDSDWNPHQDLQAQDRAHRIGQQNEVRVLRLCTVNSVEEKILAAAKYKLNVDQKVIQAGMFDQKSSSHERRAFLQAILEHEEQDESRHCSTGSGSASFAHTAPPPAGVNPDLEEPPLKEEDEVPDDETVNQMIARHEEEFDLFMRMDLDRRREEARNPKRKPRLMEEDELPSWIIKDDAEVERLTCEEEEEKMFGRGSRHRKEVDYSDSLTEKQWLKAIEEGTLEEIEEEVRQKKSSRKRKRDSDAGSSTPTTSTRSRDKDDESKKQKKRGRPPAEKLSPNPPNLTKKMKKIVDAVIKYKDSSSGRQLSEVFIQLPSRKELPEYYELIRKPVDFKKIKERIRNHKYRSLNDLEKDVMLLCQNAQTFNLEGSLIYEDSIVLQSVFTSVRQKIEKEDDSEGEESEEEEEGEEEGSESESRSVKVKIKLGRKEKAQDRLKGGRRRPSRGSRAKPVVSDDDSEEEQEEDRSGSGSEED
- protocol-text: SMARCA4 ATPase activity assay (ADP-Glo, chicken mononucleosome substrate)
- measurement-context: FL-SMARCA4 IC>50, Table 3c.2; ATPase assay, enzyme 5 nM, ATP 250 uM, chicken mononucleosome 10 nM, 30 min preincubation
Remember the convention: pIC50 equals -log10 of concentration in molar.

Reported pIC50 ( O=C(Nc1cc(F)c(=O)n(CC(F)F)c1)c1cnc(C#Cc2ccncc2)s1 [Compound 33c] ) = 5.09

The reported pIC50 of the compound CNC(=O)Cn1cc(C#Cc2cc(C(=O)Nc3cc(F)c(=O)n(CC(F)F)c3)sc2Cl)cn1 [Compound 121c] was 6.42

# pIC50 of O=C(Nc1cc(F)c(=O)n(CC(F)F)c1)c1cc(C#CC2CNC2)c(Cl)s1 [Compound 9c] = 5.11

// pIC50 value for Cc1nsc(C#Cc2cc(C(=O)Nc3cc(F)c(=O)n(CC(F)F)c3)sc2Cl)n1 [Compound 139c] : 6.73

# pIC50 (compound: O=C(Nc1cc(F)c(=O)n(CC(F)F)c1)c1cc(C#C[C@@H]2CCOC2)c(Cl)s1 [Compound 79c] ) is 6.85

// recorded pIC50 for N#Cc1sc(C(=O)Nc2cc(F)c(=O)n(CC(F)F)c2)cc1C(F)(F)F [Compound 96c] : 4.53

---

- system-name: FL-SMARCA4 (Homo sapiens)
- protocol-text: SMARCA4 ATPase activity assay (ADP-Glo, chicken mononucleosome substrate)
- measurement-context: FL-SMARCA4 IC50, Table 3.2; ATPase assay, enzyme 5 nM, ATP 250 uM, chicken mononucleosome 10 nM, 30 min preincubation
quantity: pIC50
API: returns pIC50 as number; meaning -log10 of concentration in mol/L.

The compound listed as N#Cc1[nH]c(C(=O)Nc2cc(F)c(=O)n(CC(F)(F)F)c2)cc1Cl shows pIC50 equal to 6.78

Reported pIC50 of CCn1cc(NC(=O)c2cc(Cl)n[nH]2)ccc1=O : 4.94

For Cn1nc(Cl)cc1C(=O)Nc1cc(F)c(=O)n(CCF)c1 the compound record lists pIC50 as 4.44

O=C(Nc1cc(F)c(=O)n(CC(F)(F)F)c1)c1cc(Cl)c(Cl)s1 yielded pIC50 of 6.45

Per the records, this compound ( N#Cc1cc(C(=O)Nc2cc(F)c(=O)n(CCF)c2)sc1C#N ) has pIC50 equal to 7.47

Entry under test: O=C(Nc1cc(NCCn2ccnc2)c(=O)n(CCF)c1)c1cc(Cl)c(Cl)s1 . Its pIC50 was 4.56

Entry under test: Cn1c(C(=O)Nc2cc(F)c(=O)n(CC(F)(F)F)c2)cc(Cl)c1C#N . Its pIC50 was 6.06

Record CCn1cc(NC(=O)c2ccc(Cl)s2)ccc1=O . Reported pIC50: 4.94

The measured pIC50 associated with Nc1c(C(=O)Nc2cc(F)c(=O)n(CC(F)F)c2)sc(Cl)c1Cl reads 5.66

Form field pIC50, entry CCn1cc(NC(=O)c2cc(C#Cc3ccncc3)c(Cl)s2)ccc1=O : 6.47

For record Cn1cc(NC(=O)c2cc(Cl)c(Cl)s2)cc(Cl)c1=O the listed pIC50 is 4.42

The compound identified as Cn1c(C(=O)Nc2cc(C#N)c(=O)n(CCF)c2)cc(Cl)c1C#N registered its pIC50 at 5.24

Briefly, pIC50 measured for CCn1cc(NC(=O)c2cc(Cl)n[nH]2)cc(Cl)c1=O : 5.45

Entry O=C(Nc1cc(F)c(=O)n(CC(F)F)c1)c1cc(C#Cc2cccnc2)c(Cl)s1 , pIC50 reported as 6.95

Recorded result, Cn1c(C(=O)Nc2cc(F)c(=O)n(CCF)c2)cc(Cl)c1C#N , pIC50: 6.21

CCn1cc(NC(=O)c2cc(C#CCN)c(Cl)s2)ccc1=O has a reported pIC50 of 5.07

The measured pIC50 associated with N#Cc1[nH]c(C(=O)Nc2cc(C#N)c(=O)n(CCF)c2)cc1Cl reads 6.06

---

- system-name: FL-SMARCA2 (full-length human SMARCA2 isoform 1) (Homo sapiens, UniProt P51531)
- Construct: FLAG tag (YKDDDDK) (C); made in house; host or cells: Sf21 insect cells (baculovirus, pFastBacI)
- protocol-text: SMARCA2 ATPase activity assay (ADP-Glo, chicken mononucleosome substrate)
- Assay type: biochemical
- measurement-context: Table 3b.1; SMARCA2 5 nM, ATP 250 uM, mononucleosome 10 nM
pIC50: −log10 of the molar value.
quantity: pIC50

The compound listed as CCn1cc(NC(=O)C2C(C)(C)C2(C)C)ccc1=O has a reported pIC50 of < 4.30

Recorded pIC50 (compound CCn1cc(NC(=O)[C@H]2CC[C@@H](Cl)C2)ccc1=O [Compound 16b] ): < 4.30

pIC50 in this record for CCn1cc(NC(=O)[C@@H]2CCC[C@@H](Cl)C2)ccc1=O [Compound 14b] : < 4.30

The compound listed as CC(=O)Nc1ccc(C(=O)Nc2cc(F)c(=O)n(CCF)c2)cc1Cl [Compound 22b] shows pIC50 equal to < 4.30

Measured pIC50, CCn1cc(NC(=O)c2ccc(Cl)c(Cl)c2)ccc1=O : 4.38

Please fill in: pIC50 reported for CCn1cc(NC(=O)C2CCCC2)ccc1=O [Compound 11b] = < 4.30

pIC50 in this record for CCn1cc(NC(=O)c2ccc(Cl)c(F)c2)ccc1=O : 4.36

For record CC(=O)c1cc(C(=O)Nc2c[nH]c(=O)c(C)c2)ccc1C the listed pIC50 is < 4.30

pIC50 in this record for CCn1cc(NC(=O)c2ccc(F)c(Cl)c2)ccc1=O : < 4.30

Record CN(C)C(=O)c1ccc(C(=O)Nc2cc(F)c(=O)n(CCF)c2)cc1 [Compound 21b] , field pIC50: < 4.30

compound CCn1cc(NC(=O)c2cccc(Cl)c2)ccc1=O , pIC50 observed: < 4.30

Reported pIC50 of CCn1cc(NC(=O)c2cc(Cl)cc(Cl)c2)ccc1=O : < 4.30

// field: pIC50; key: N#Cc1ccc(C(=O)Nc2cc(F)c(=O)n(CCF)c2)cc1C#N [Compound 20b] ; value = 5.61

Documented pIC50 of CCn1cc(NC(=O)[C@@H]2CCC[C@H](Cl)C2)ccc1=O [Compound 13b] : < 4.30

Entry N#Cc1cc(C(=O)Nc2cc(F)c(=O)n(CCF)c2)ccc1Cl [Compound 18b] ; pIC50 = 6.04

The compound listed as CCn1cc(NC(=O)[C@@H]2CC[C@H](Cl)C2)ccc1=O [Compound 15b] shows pIC50 equal to < 4.30

Short answer for CCn1cc(NC(=O)c2cccc(Cl)c2F)ccc1=O [Compound 10b] : pIC50 was < 4.30

// N#Cc1ccc(C(=O)Nc2cc(F)c(=O)n(CCF)c2)cc1Cl [Compound 19b] : pIC50 value = 5.69

Entry Cc1c(Cl)cccc1C(=O)Nc1c[nH]c(=O)c(C)c1 , pIC50 reported as < 4.30

Form: compound = NS(=O)(=O)c1ccc(C(=O)Nc2cc(F)c(=O)n(CCF)c2)cc1Cl [Compound 23b] ; pIC50 = < 4.30
